biological target: human VEGF (human) (UniProt P15692); assay: specificity phage ELISA

binder	ELISA signal at 450 nm
G40 (Fab, V domains shown) VH: EVQLVESGGGLVQPGGSLRLSCAASGFSIWWSWIHWVRQAPGKGLEWVASISPSSGWTSYADSVKGRFTISADTSKNTAYLQMNSLRAEDTAVYYCARWSSWGLDYWGQGTLVTVSS VL: DIQMTQSPSSLSASVGDRVTITCRASQDVNTAVAWYQQKPGKAPKLLIYSASSLYSGVPSRFSGSRSGTDFTLTISSLQPEDFATYYCQQWSWWPSTFGQGTKVEIK	0.31
G36 (Fab, V domains shown) VH: EVQLVESGGGLVQPGGSLRLSCAASGFSIWWSWIHWVRQAPGKGLEWVASISPSSGWTSYADSVKGRFTISADTSKNTAYLQMNSLRAEDTAVYYCARWSSSAFDYWGQGTLVTVSS VL: DIQMTQSPSSLSASVGDRVTITCRASQDVNTAVAWYQQKPGKAPKLLIYSASSLYSGVPSRFSGSRSGTDFTLTISSLQPEDFATYYCQQWWWWPSTFGQGTKVEIK	0.38
G35 (Fab, V domains shown) VH: EVQLVESGGGLVQPGGSLRLSCAASGFSISWSWIHWVRQAPGKGLEWVASIWPSSGWTSYADSVKGRFTISADTSKNTAYLQMNSLRAEDTAVYYCARWWSSALDYWGQGTLVTVSS VL: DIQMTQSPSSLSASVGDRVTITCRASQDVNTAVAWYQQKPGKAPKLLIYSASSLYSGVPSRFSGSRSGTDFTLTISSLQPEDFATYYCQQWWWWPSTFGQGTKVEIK	0.31
G32 (Fab, V domains shown) VH: EVQLVESGGGLVQPGGSLRLSCAASGFSIWWSWIHWVRQAPGKGLEWVASISPSSGWTSYADSVKGRFTISADTSKNTAYLQMNSLRAEDTAVYYCARWWSSGMDYWGQGTLVTVSS VL: DIQMTQSPSSLSASVGDRVTITCRASQDVNTAVAWYQQKPGKAPKLLIYSASSLYSGVPSRFSGSRSGTDFTLTISSLQPEDFATYYCQQWWWWPWTFGQGTKVEIK	0.35
G29 (Fab, V domains shown) VH: EVQLVESGGGLVQPGGSLRLSCAASGFSIWWSWIHWVRQAPGKGLEWVASISPSSGWTSYADSVKGRFTISADTSKNTAYLQMNSLRAEDTAVYYCARWWSSAIDYWGQGTLVTVSS VL: DIQMTQSPSSLSASVGDRVTITCRASQDVNTAVAWYQQKPGKAPKLLIYSASSLYSGVPSRFSGSRSGTDFTLTISSLQPEDFATYYCQQSWWWPWTFGQGTKVEIK	0.33
Clone G37 (SX-surface), purified Fab (Fab, V domains shown) VH: EVQLVESGGGLVQPGGSLRLSCAASGFSIWWSWIHWVRQAPGKGLEWVASISPSSGWTSYADSVKGRFTISADTSKNTAYLQMNSLRAEDTAVYYCARWWSSAMDYWGQGTLVTVSS VL: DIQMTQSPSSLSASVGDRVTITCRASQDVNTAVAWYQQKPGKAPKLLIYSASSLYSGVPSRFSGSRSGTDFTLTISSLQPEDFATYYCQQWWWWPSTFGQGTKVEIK	0.23

Data origin: patent US20070202552A1
